# test target: HLA.A2 with NY-ESO-1: 157-165 on IM9 cells
# test name: cell-based or functional assay
observation type: Max Fold (RLU), NFAT-luciferase (fold)
The response must be a number in fold with no trailing unit.

Observe how each entry below is paired with its result.
NY-ESO CAR-T 24959N VL-VH (protein, part only; not given: scFv linker, hinge, signalling domains, not shown: large carriers) chain, part: DIQMTQSPSSLSASVGDRVTITCQASQDISNYLKWYQQKPGKAPKILIHDASNLEIGVPSRFSGSGAGTDFIFTISSLQPEDIGTYYCQQYDNLPITFGQGTRLEIKQLQLLESGPGLVKPSETLSLICTVSGGSIRGSSYYWGWIRQPPEKGLEWIGSIYSSGSTYYNPSLKSRVTISADTSKNQFSLKLSSVTAADTAVYYCARHGGITAVQLEFDPWGQGTLVTVSS = 0.8
NY-ESO CAR-T 24959N VH-VL (protein, part only; not given: scFv linker, hinge, signalling domains, not shown: large carriers) chain, part: QLQLLESGPGLVKPSETLSLICTVSGGSIRGSSYYWGWIRQPPEKGLEWIGSIYSSGSTYYNPSLKSRVTISADTSKNQFSLKLSSVTAADTAVYYCARHGGITAVQLEFDPWGQGTLVTVSSDIQMTQSPSSLSASVGDRVTITCQASQDISNYLKWYQQKPGKAPKILIHDASNLEIGVPSRFSGSGAGTDFIFTISSLQPEDIGTYYCQQYDNLPITFGQGTRLEIK = 1.1

Would you kindly look at the next entry?
stdin: Can you share its Max Fold (RLU), NFAT-luciferase? I mean this binder: NY-ESO CAR-T 24958N VL-VH (protein, part only; not given: scFv linker, hinge, signalling domains, not shown: large carriers) chain, part: DIQMTQSPSSLSASVGDRVTITCRTSQSISRYLNWYQQKPGKAPKLLIFAASSLQSGVPSRFSGSGSGADFTLTISSLQPEDFATYYCQQSYSTPPITFGQGTRLEIKQVQLQESGPGLVKPSQTLSLTCTVSGGSIISDGYYWSWIRQHPGKGLEWIGYVDYSGNTYYNPSLKSRIIMSVDTSKNQFSLKLTSVTAADTAVYFCVREGPLRDAFEIWGQGTMVTVSS
stdout: 0.9

Provenance of the data: patent US20220251215A1
